# SYSTEM_UNDER_TEST: AR protein in VCaP cells (Homo sapiens)
# Construct: endogenous in cells; host or cells: VCaP cells
# Sequence (P10275 whole entry): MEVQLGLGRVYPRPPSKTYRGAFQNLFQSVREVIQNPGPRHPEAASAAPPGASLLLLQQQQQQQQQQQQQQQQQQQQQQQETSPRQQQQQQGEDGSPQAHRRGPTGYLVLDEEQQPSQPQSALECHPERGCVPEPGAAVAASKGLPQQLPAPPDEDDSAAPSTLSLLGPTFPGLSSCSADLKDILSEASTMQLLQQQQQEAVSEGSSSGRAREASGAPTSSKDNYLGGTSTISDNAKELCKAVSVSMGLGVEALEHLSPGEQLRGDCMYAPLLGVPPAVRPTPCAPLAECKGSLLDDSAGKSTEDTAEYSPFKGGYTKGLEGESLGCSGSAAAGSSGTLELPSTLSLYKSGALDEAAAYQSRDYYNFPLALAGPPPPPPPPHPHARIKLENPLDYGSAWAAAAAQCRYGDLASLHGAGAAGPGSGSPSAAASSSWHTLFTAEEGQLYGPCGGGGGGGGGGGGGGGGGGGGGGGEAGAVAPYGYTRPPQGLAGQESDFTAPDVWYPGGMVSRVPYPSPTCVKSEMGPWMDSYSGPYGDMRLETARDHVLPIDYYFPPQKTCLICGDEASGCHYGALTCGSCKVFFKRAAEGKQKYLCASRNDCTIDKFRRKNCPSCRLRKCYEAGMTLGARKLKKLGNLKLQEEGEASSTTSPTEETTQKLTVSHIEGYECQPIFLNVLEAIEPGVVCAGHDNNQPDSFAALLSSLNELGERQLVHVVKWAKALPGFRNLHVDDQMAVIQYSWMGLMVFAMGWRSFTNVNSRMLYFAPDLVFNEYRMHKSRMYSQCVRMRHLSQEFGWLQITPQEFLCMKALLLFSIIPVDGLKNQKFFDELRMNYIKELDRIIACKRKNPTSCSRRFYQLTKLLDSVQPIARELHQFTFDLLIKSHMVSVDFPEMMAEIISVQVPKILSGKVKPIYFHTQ
# PROTOCOL_SUMMARY: VCAP AR Degradation Assay
# Type: cell-based
# CONDITION_SUMMARY: 24 h, AR ELISA, concentration at 50% of DMSO control (50% AR degradation)
Counter-ions that a name gives are not always drawn.
Listed here: items and their measured DC50.
VALUE_KIND: DC50

{"COMPOUND": "CC1(C)C(=O)N(c2cnc(C#N)c(C(F)(F)F)c2)C(=S)N1[C@H]1CC[C@H](OCCC2CCN(CC(=O)Nc3cccc(NC4CCC(=O)NC4=O)c3)CC2(F)F)CC1 (stereo partly shown) [Cmpd 46, hydrochloride]", "OBS_VALUE": "≤ 5 nM"}
{"COMPOUND": "CC1(C)C(=O)N(c2ccc(C#N)c(C(F)(F)F)c2)C(=S)N1[C@H]1CC[C@H](CCCN2CCN(CC(=O)Nc3cccc(NC4CCC(=O)NC4=O)c3)[C@@H](C(F)(F)F)C2)CC1 (stereo partly shown)", "OBS_VALUE": "5 to 10 nM"}
{"COMPOUND": "C[C@@H]1CN(CCO[C@H]2CC[C@H](N3C(=S)N(c4cnc(C#N)c(C(F)(F)F)c4)C(=O)C3(C)C)CC2)C[C@H](C)N1CC(=O)Nc1cccc(N[C@@H]2CCC(=O)NC2=O)c1", "OBS_VALUE": "< 1000 nM"}
{"COMPOUND": "C[C@@H]1C[C@H](CCO[C@H]2CC[C@H](N3C(=S)N(c4ccc(C#N)c(C(F)(F)F)c4)C(=O)C3(C)C)CC2)C[C@H](C)N1CC(=O)Nc1cccc(NC2CCC(=O)NC2=O)c1 (stereo partly shown) [Cmpd 16, hydrochloride]", "OBS_VALUE": "5 to 10 nM"}
{"COMPOUND": "C[C@@H]1CN(CCO[C@H]2CC[C@H](N3C(=S)N(c4ccc(C#N)c(S(F)(F)(F)(F)F)c4)C(=O)C3(C)C)CC2)C[C@H](C)N1CC(=O)Nc1cccc(NC2CCC(=O)NC2=O)c1 (stereo partly shown) [Cmpd 7, hydrochloride]", "OBS_VALUE": "10 to 100 nM"}
{"COMPOUND": "C[C@@H]1CN(CCC[C@H]2CC[C@H](N3C(=S)N(c4ccc(C#N)c(Cl)c4)C(=O)C3(C)C)CC2)C[C@H](C)N1CC(=O)Nc1cccc(NC2CCC(=O)NC2=O)c1 (stereo partly shown) [Cmpd 14, hydrochloride]", "OBS_VALUE": "10 to 100 nM"}
{"COMPOUND": "CC1(C)C(=O)N(c2ccc(C#N)c(C(F)(F)F)c2)C(=S)N1[C@H]1CC[C@H](OCCCN2CCN(CC(=O)Nc3cccc(NC4CCC(=O)NC4=O)c3)[C@@H](C(F)(F)F)C2)CC1 (stereo partly shown)", "OBS_VALUE": "5 to 10 nM"}
{"COMPOUND": "C[C@@H]1C[C@@H](CCO[C@H]2CC[C@H](N3C(=S)N(c4ccc(C#N)c(C(F)(F)F)c4)C(=O)C3(C)C)CC2)C[C@H](C)N1CC(=O)Nc1cccc(NC2CCC(=O)NC2=O)c1 (stereo partly shown) [Cmpd 15, hydrochloride]", "OBS_VALUE": "5 to 10 nM"}
{"COMPOUND": "CC1(C)C(=O)N(c2cnc(C#N)c(C(F)(F)F)c2)C(=S)N1[C@H]1CC[C@H](OCCN2CCN(CC(=O)Nc3cccc(N[C@H]4CCC(=O)NC4=O)c3)[C@@H](C(F)(F)F)C2)CC1 [Cmpd 41, hydrochloride]", "OBS_VALUE": "≤ 5 nM"}
{"COMPOUND": "C[C@@H]1CN(CCC[C@H]2CC[C@H](N3C(=S)N(c4cnc(C#N)c(Cl)c4)C(=O)C3(C)C)CC2)C[C@H](C)N1CC(=O)Nc1cccc(NC2CCC(=O)NC2=O)c1 (stereo partly shown) [Cmpd 13, hydrochloride]", "OBS_VALUE": "5 to 10 nM"}
